Target: T1, Abp1, P15891
T1 sequence (P15891 535-592, looked up): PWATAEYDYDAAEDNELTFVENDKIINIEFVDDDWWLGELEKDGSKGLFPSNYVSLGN
Assay: SPOT array
Conditions: median of control spots 935
Flag rule - SPOT intensity less than 100 flags 1; the remaining entries get -1.

PELAPKREAPKPPAN    1
GRLRPKRIAPWHLIQ    1
KDKKTKPTPPPKPSH    -1
YYNRQELALPKRMSS    1
FLIKFTPKFPQSIDH    -1
QGYPRQPQRPQRYHP    1

Q. For "PVLPPPRSPNRPTLS" , is the recorded SPOT intensity below the cut-off of 100?
A. -1
